Tested on: Mycobacterium tuberculosis Erdman (autoluminescent)
Assay: GRinf, maximum normalised growth rate inhibition (three-drug combination) (unitless (-1 to 1)); higher = less effect (negative = killing)
Conditions: in vitro model: butyrate; time point: terminal (~4-5 doublings, model-specific)
What GRinf was measured for each of the following?

# COMPOUND, OBSERVED VALUE
rows = [
    ("CC[C@@H](CO)NCCN[C@@H](CC)CO [ethambutol] + NC(=O)c1cnccn1 [pyrazinamide] + CO[C@H]1/C=C/O[C@@]2(C)Oc3c(C)c(O)c4c(O)c(c(/C=N/N5CCN(C6CCCC6)CC5)c(O)c4c3C2=O)NC(=O)/C(C)=C\\C=C\\[C@H](C)[C@H](O)[C@@H](C)[C@@H](O)[C@@H](C)[C@H](OC(C)=O)[C@@H]1C [rifapentine]", 0.025),
    ("COc1nc2ccc(Br)cc2cc1[C@@H](c1ccccc1)[C@@](O)(CCN(C)C)c1cccc2ccccc12 [bedaquiline] + CC(C)/N=c1\\cc2n(-c3ccc(Cl)cc3)c3ccccc3nc-2cc1Nc1ccc(Cl)cc1 [clofazimine] + COc1c(N2C[C@@H]3CCCN[C@@H]3C2)c(F)cc2c(=O)c(C(=O)O)cn(C3CC3)c12 [moxifloxacin]", -0.117),
]

Record summary for CC[C@@H](CO)NCCN[C@@H](CC)CO [ethambutol] + NNC(=O)c1ccncc1 [isoniazid] + O=[N+]([O-])c1cn2c(n1)OC[C@@H](OCc1ccc(OC(F)(F)F)cc1)C2 [pretomanid] : reported GRinf = -0.0497

----------
Tested on: Mycobacterium tuberculosis Erdman (autoluminescent)
Assay: FIC90 (Loewe) at 90% inhibition (log2); higher = more antagonistic
Conditions: in vitro model: cholesterol 0.05 mM; time point: terminal (~4-5 doublings, model-specific)
Task for the reader: assign each of the following compounds its reported FIC90.
Numbers only.

Consider the following illustrative entries.
# COMPOUND, FIC90
records = [
    ("CC(C)/N=c1\\cc2n(-c3ccc(Cl)cc3)c3ccccc3nc-2cc1Nc1ccc(Cl)cc1 [clofazimine] + CO[C@H]1/C=C/O[C@@]2(C)Oc3c(C)c(O)c4c(O)c(c(/C=N/N5CCN(C6CCCC6)CC5)c(O)c4c3C2=O)NC(=O)/C(C)=C\\C=C\\[C@H](C)[C@H](O)[C@@H](C)[C@@H](O)[C@@H](C)[C@H](OC(C)=O)[C@@H]1C [rifapentine]", 1.44),
    ("CC(=O)NC[C@H]1CN(c2ccc(N3CCOCC3)c(F)c2)C(=O)O1 [linezolid] + CO[C@H]1/C=C/O[C@@]2(C)Oc3c(C)c(O)c4c(O)c(c(/C=N/N5CCN(C6CCCC6)CC5)c(O)c4c3C2=O)NC(=O)/C(C)=C\\C=C\\[C@H](C)[C@H](O)[C@@H](C)[C@@H](O)[C@@H](C)[C@H](OC(C)=O)[C@@H]1C [rifapentine]", 0.274),
]

Consider now this further compound.
Just so you know, measured FIC90 for CC(=O)NC[C@H]1CN(c2ccc(N3CCOCC3)c(F)c2)C(=O)O1 [linezolid] + COc1c(N2C[C@@H]3CCCN[C@@H]3C2)c(F)cc2c(=O)c(C(=O)O)cn(C3CC3)c12 [moxifloxacin] came out at -0.309

----------
Tested on: Mycobacterium tuberculosis Erdman (autoluminescent)
Test: AUC25, normalised area under dose response up to IC25 (three-drug combination) (fraction (0-1)); higher = more potent at low dose
Conditions: in vitro model: valerate; time point: constant (~7 days, model-specific)
So I've got a bunch of compounds here, and I need their AUC25 values.
Give bare numbers.

# COMPOUND, SYSTEM TESTED, OBSERVED VALUE
data = [
    ("CC(C)/N=c1\\cc2n(-c3ccc(Cl)cc3)c3ccccc3nc-2cc1Nc1ccc(Cl)cc1 [clofazimine] + CC(=O)NC[C@H]1CN(c2ccc(N3CCOCC3)c(F)c2)C(=O)O1 [linezolid] + O=[N+]([O-])c1cn2c(n1)OC[C@@H](OCc1ccc(OC(F)(F)F)cc1)C2 [pretomanid]", "Mycobacterium tuberculosis Erdman (autoluminescent)", 0.14),
]

# next compound below
Per the record, NNC(=O)c1ccncc1 [isoniazid] + NC(=O)c1cnccn1 [pyrazinamide] + CO[C@H]1/C=C/O[C@@]2(C)Oc3c(C)c(O)c4c(O)c(c(/C=N/N5CCN(C)CC5)c(O)c4c3C2=O)NC(=O)/C(C)=C\C=C\[C@H](C)[C@H](O)[C@@H](C)[C@@H](O)[C@@H](C)[C@H](OC(C)=O)[C@@H]1C [rifampicin] has AUC25 of 0.0587

----------
System: Mycobacterium tuberculosis Erdman (autoluminescent)
Assay: Einf, fitted maximum growth inhibition of three-drug combination (fraction); higher = stronger maximal inhibition
Conditions: in vitro model: butyrate; time point: terminal (~4-5 doublings, model-specific)
Give measured Einf for each item. Keep answers brief.
Give bare numbers.

Use these answered entries as a reference point.
# MOLECULE, OBSERVED VALUE
measured = [
    ("CC(C)/N=c1\\cc2n(-c3ccc(Cl)cc3)c3ccccc3nc-2cc1Nc1ccc(Cl)cc1 [clofazimine] + NNC(=O)c1ccncc1 [isoniazid] + CO[C@H]1/C=C/O[C@@]2(C)Oc3c(C)c(O)c4c(O)c(c(/C=N/N5CCN(C6CCCC6)CC5)c(O)c4c3C2=O)NC(=O)/C(C)=C\\C=C\\[C@H](C)[C@H](O)[C@@H](C)[C@@H](O)[C@@H](C)[C@H](OC(C)=O)[C@@H]1C [rifapentine]", 0.98),
    ("CC[C@@H](CO)NCCN[C@@H](CC)CO [ethambutol] + NNC(=O)c1ccncc1 [isoniazid] + CO[C@H]1/C=C/O[C@@]2(C)Oc3c(C)c(O)c4c(O)c(c(/C=N/N5CCN(C6CCCC6)CC5)c(O)c4c3C2=O)NC(=O)/C(C)=C\\C=C\\[C@H](C)[C@H](O)[C@@H](C)[C@@H](O)[C@@H](C)[C@H](OC(C)=O)[C@@H]1C [rifapentine]", 0.961),
]

Now take the following molecule into account.
The recorded Einf for entry CC(C)/N=c1\cc2n(-c3ccc(Cl)cc3)c3ccccc3nc-2cc1Nc1ccc(Cl)cc1 [clofazimine] + O=[N+]([O-])c1cn2c(n1)OC[C@@H](OCc1ccc(OC(F)(F)F)cc1)C2 [pretomanid] + CO[C@H]1/C=C/O[C@@]2(C)Oc3c(C)c(O)c4c(O)c(c(/C=N/N5CCN(C)CC5)c(O)c4c3C2=O)NC(=O)/C(C)=C\C=C\[C@H](C)[C@H](O)[C@@H](C)[C@@H](O)[C@@H](C)[C@H](OC(C)=O)[C@@H]1C [rifampicin] equals 0.977

----------
System: Mycobacterium tuberculosis Erdman (autoluminescent)
Experiment: GRinf, maximum normalised growth rate inhibition (three-drug combination) (unitless (-1 to 1)); higher = less effect (negative = killing)
Conditions: in vitro model: butyrate; time point: constant (~7 days, model-specific)
REPORTED PROPERTY: GRinf
Give bare numbers.

# COMPOUND, GRinf
records = [
    ("COc1nc2ccc(Br)cc2cc1[C@@H](c1ccccc1)[C@@](O)(CCN(C)C)c1cccc2ccccc12 [bedaquiline] + COc1c(N2C[C@@H]3CCCN[C@@H]3C2)c(F)cc2c(=O)c(C(=O)O)cn(C3CC3)c12 [moxifloxacin] + NC(=O)c1cnccn1 [pyrazinamide]", -0.798),
    ("CC(C)/N=c1\\cc2n(-c3ccc(Cl)cc3)c3ccccc3nc-2cc1Nc1ccc(Cl)cc1 [clofazimine] + CC[C@@H](CO)NCCN[C@@H](CC)CO [ethambutol] + CO[C@H]1/C=C/O[C@@]2(C)Oc3c(C)c(O)c4c(O)c(c(/C=N/N5CCN(C6CCCC6)CC5)c(O)c4c3C2=O)NC(=O)/C(C)=C\\C=C\\[C@H](C)[C@H](O)[C@@H](C)[C@@H](O)[C@@H](C)[C@H](OC(C)=O)[C@@H]1C [rifapentine]", -0.0595),
]

For the next question, use this compound.
Here COc1nc2ccc(Br)cc2cc1[C@@H](c1ccccc1)[C@@](O)(CCN(C)C)c1cccc2ccccc12 [bedaquiline] + COc1c(N2C[C@@H]3CCCN[C@@H]3C2)c(F)cc2c(=O)c(C(=O)O)cn(C3CC3)c12 [moxifloxacin] + CO[C@H]1/C=C/O[C@@]2(C)Oc3c(C)c(O)c4c(O)c(c(/C=N/N5CCN(C6CCCC6)CC5)c(O)c4c3C2=O)NC(=O)/C(C)=C\C=C\[C@H](C)[C@H](O)[C@@H](C)[C@@H](O)[C@@H](C)[C@H](OC(C)=O)[C@@H]1C [rifapentine] was tested on Mycobacterium tuberculosis Erdman (autoluminescent), and its GRinf came to -0.132

----------
Test system: Mycobacterium tuberculosis Erdman (autoluminescent)
Assay: FIC50 (Loewe) at 50% inhibition (log2); higher = more antagonistic
Settings: in vitro model: cholesterol 0.05 mM; time point: terminal (~4-5 doublings, model-specific)
REPORTED PROPERTY: FIC50
Answers are plain numbers.

Sample answers from the record:
# COMPOUND, FIC50
rows = [
    ("CC(=O)NC[C@H]1CN(c2ccc(N3CCOCC3)c(F)c2)C(=O)O1 [linezolid] + CO[C@H]1/C=C/O[C@@]2(C)Oc3c(C)c(O)c4c(O)c(c(/C=N/N5CCN(C6CCCC6)CC5)c(O)c4c3C2=O)NC(=O)/C(C)=C\\C=C\\[C@H](C)[C@H](O)[C@@H](C)[C@@H](O)[C@@H](C)[C@H](OC(C)=O)[C@@H]1C [rifapentine]", -0.0542),
    ("CC(C)/N=c1\\cc2n(-c3ccc(Cl)cc3)c3ccccc3nc-2cc1Nc1ccc(Cl)cc1 [clofazimine] + O=[N+]([O-])c1cn2c(n1)OC[C@@H](OCc1ccc(OC(F)(F)F)cc1)C2 [pretomanid]", 0.632),
]

Form: item COc1c(N2C[C@@H]3CCCN[C@@H]3C2)c(F)cc2c(=O)c(C(=O)O)cn(C3CC3)c12 [moxifloxacin] + CO[C@H]1/C=C/O[C@@]2(C)Oc3c(C)c(O)c4c(O)c(c(/C=N/N5CCN(C)CC5)c(O)c4c3C2=O)NC(=O)/C(C)=C\C=C\[C@H](C)[C@H](O)[C@@H](C)[C@@H](O)[C@@H](C)[C@H](OC(C)=O)[C@@H]1C ; test system Mycobacterium tuberculosis Erdman (autoluminescent); FIC50: 0.35
